Data origin, for the record: paper PMC5503534

Test system: pediatric T-ALL patient cell samples
Experimental details: Viability assays with T-ALL patient samples
Assay type: cell-based, human
Condition parameters: patient sample 491, three-day assay; read-out: IC50
Assay readout: pIC50
Please keep in mind that pIC50 is minus log10 of the molar concentration; only the number is needed.

Give pIC50; test system pediatric T-ALL patient cell samples; compound CCc1cccc(CC)c1NC(=O)c1ccn2c1CCc1cnc(Nc3ccc(N4CCN(C)CC4)cc3OC)nc1-2 5.30

* * *

Test system: post-tetraploid HPT4 cells
Experimental details: Cell proliferation assay, post-tetraploid HPT4
Type: cell-based, human
Condition parameters: HPT4, five days, average of three experiments
# strict inequality: Efficacy (%) < 60% yields condition met, everything else yields condition not met

Consider O=C(O)c1ccc(Nc2ncc3c(n2)-c2ccc(Cl)cc2C(c2c(F)cccc2F)=NC3)cc1 . Does its Efficacy (%) lie strictly below 60%? condition met

Consider Cc1cc(N2CCOCC2)ccc1Nc1nc(NC2CCCCC2)c2[nH]cnc2n1 . Does its Efficacy (%) lie strictly below 60%? condition met

Consider COc1cccc2c1C(=O)c1c(O)c3c(c(O)c1C2=O)C[C@@](O)(C(=O)CO)C[C@@H]3O[C@H]1C[C@H](N)[C@H](O)[C@H](C)O1 . Does its Efficacy (%) lie strictly below 60%? condition not met

Consider N[C@@H](CSC(c1ccccc1)(c1ccccc1)c1ccccc1)C(=O)O . Does its Efficacy (%) lie strictly below 60%? condition not met

Consider c1nc2nc(Nc3ccc(N4CCOCC4)cc3)nc(NC3CCCCC3)c2[nH]1 . Does its Efficacy (%) lie strictly below 60%? condition met

Consider CCn1cc(-c2ccnc3[nH]c(-c4cccc(CN(C)C)c4)cc23)c(-c2ccc(NC(=O)N(C)C)cc2)n1 . Does its Efficacy (%) lie strictly below 60%? condition not met

Consider CC[C@@H]1C(=O)N(C)c2cnc(Nc3ccc(C(=O)N[C@H]4CC[C@H](N5CCN(CC6CC6)CC5)CC4)cc3OC)nc2N1C(C)C . Does its Efficacy (%) lie strictly below 60%? condition not met

Consider CCc1cccc(CC)c1NC(=O)c1ccn2c1CCc1cnc(Nc3ccc(N4CCN(C)CC4)cc3OC)nc1-2 . Does its Efficacy (%) lie strictly below 60%? condition met

* * *

System: HCT 116 colon carcinoma cell line
Experimental details: Cell proliferation assay (ATPlite), HCT 116
Assay type: cell-based, human
Condition parameters: Homo sapiens, 120 h; HCT 116 near-diploid, five days, geometric average of three experiments (Suppl. Table 2A)
Assay readout: pIC50
Please keep in mind that pIC50 is minus log10 of the molar concentration; only the number is needed.

Specify reported pIC50 for the compound shown: CCn1cc(-c2ccnc3[nH]c(-c4cccc(CN(C)C)c4)cc23)c(-c2ccc(NC(=O)N(C)C)cc2)n1 [GSK-1070916] 7.85

Specify reported pIC50 for the compound shown: CC[C@@H]1C(=O)N(C)c2cnc(Nc3ccc(C(=O)N[C@H]4CC[C@H](N5CCN(CC6CC6)CC5)CC4)cc3OC)nc2N1C(C)C [volasertib] 7.60

Specify reported pIC50 for the compound shown: O=C(O)c1ccc(Nc2ncc3c(n2)-c2ccc(Cl)cc2C(c2c(F)cccc2F)=NC3)cc1 [MLN-8054] 6.15

Specify reported pIC50 for the compound shown: COc1cccc2c1C(=O)c1c(O)c3c(c(O)c1C2=O)C[C@@](O)(C(=O)CO)C[C@@H]3O[C@H]1C[C@H](N)[C@H](O)[C@H](C)O1 [doxorubicin] 7.51

* * *

Please provide measured IC50 for the entries that follow.
System: post-tetraploid HPT4 cells
Experimental details: Cell proliferation assay, post-tetraploid HPT4
Assay type: cell-based, human
Condition parameters: HPT4, five days, geometric average of three experiments

Give IC50; test system post-tetraploid HPT4 cells; compound Cc1cc(N2CCOCC2)ccc1Nc1nc(NC2CCCCC2)c2[nH]cnc2n1 0.191 µM

Give IC50; test system post-tetraploid HPT4 cells; compound CCc1cccc(CC)c1NC(=O)c1ccn2c1CCc1cnc(Nc3ccc(N4CCN(C)CC4)cc3OC)nc1-2 0.044 µM

* * *

System: pediatric T-ALL patient cell samples
Experimental details: Viability assays with T-ALL patient samples
Assay type: cell-based, human
Condition parameters: Homo sapiens, 72 h, patient sample 2323, three-day assay; read-out: IC50
Assay readout: IC50

Specify reported IC50 for the molecule shown: CC(C)C[C@H](NC(=O)[C@H](Cc1ccccc1)NC(=O)c1cnccn1)B(O)O 3 nM

* * *

Tested on: HCT 116 vs HPT1, -2 and -4
Experimental details: Drug sensitivity analysis, HCT116 diploid versus tetraploids
Assay type: cell-based, human
Condition parameters: HCT 116 vs HPT1, -2 and -4, based on % effect
Assay readout: Phenotype (efficacy)

The cases that follow already have their Phenotype (efficacy) on record.
{"Compound structure": "Cc1cc(N2CCOCC2)ccc1Nc1nc(NC2CCCCC2)c2[nH]cnc2n1", "Obs value": "resistant"}
{"Compound structure": "CCc1cccc(CC)c1NC(=O)c1ccn2c1CCc1cnc(Nc3ccc(N4CCN(C)CC4)cc3OC)nc1-2", "Obs value": "resistant"}
{"Compound structure": "CC[C@@H]1C(=O)N(C)c2cnc(Nc3ccc(C(=O)N[C@H]4CC[C@H](N5CCN(CC6CC6)CC5)CC4)cc3OC)nc2N1C(C)C", "Obs value": "resistant"}
{"Compound structure": "CCn1cc(-c2ccnc3[nH]c(-c4cccc(CN(C)C)c4)cc23)c(-c2ccc(NC(=O)N(C)C)cc2)n1", "Obs value": "sensitive"}
{"Compound structure": "COc1cccc2c1C(=O)c1c(O)c3c(c(O)c1C2=O)C[C@@](O)(C(=O)CO)C[C@@H]3O[C@H]1C[C@H](N)[C@H](O)[C@H](C)O1", "Obs value": "sensitive"}
{"Compound structure": "c1nc2nc(Nc3ccc(N4CCOCC4)cc3)nc(NC3CCCCC3)c2[nH]1", "Obs value": "resistant"}
{"Compound structure": "N[C@@H](CSC(c1ccccc1)(c1ccccc1)c1ccccc1)C(=O)O", "Obs value": "resistant"}

Now for the compound whose Phenotype (efficacy) we want.
Specify reported Phenotype (efficacy) for the compound shown: O=C(O)c1ccc(Nc2ncc3c(n2)-c2ccc(Cl)cc2C(c2c(F)cccc2F)=NC3)cc1 resistant

* * *

Tested on: HCT 116 vs HPT1, -2 and -4
Experimental details: Drug sensitivity analysis, HCT116 diploid versus tetraploids
Assay type: cell-based, human
Condition parameters: HCT 116 vs HPT1, -2 and -4; 'resistant' indicates that tetraploids are resistant
Assay readout: Phenotype (potency)

The cases that follow already have their Phenotype (potency) on record.
{"Compound structure": "CCn1cc(-c2ccnc3[nH]c(-c4cccc(CN(C)C)c4)cc23)c(-c2ccc(NC(=O)N(C)C)cc2)n1", "Phenotype (potency)": "resistant"}
{"Compound structure": "O=C(O)c1ccc(Nc2ncc3c(n2)-c2ccc(Cl)cc2C(c2c(F)cccc2F)=NC3)cc1", "Phenotype (potency)": "resistant"}
{"Compound structure": "Cc1cc(N2CCOCC2)ccc1Nc1nc(NC2CCCCC2)c2[nH]cnc2n1", "Phenotype (potency)": "sensitive"}
{"Compound structure": "c1nc2nc(Nc3ccc(N4CCOCC4)cc3)nc(NC3CCCCC3)c2[nH]1", "Phenotype (potency)": "sensitive"}
{"Compound structure": "COc1cccc2c1C(=O)c1c(O)c3c(c(O)c1C2=O)C[C@@](O)(C(=O)CO)C[C@@H]3O[C@H]1C[C@H](N)[C@H](O)[C@H](C)O1", "Phenotype (potency)": "resistant"}

Give Phenotype (potency); test system HCT 116 vs HPT1, -2 and -4; compound CC[C@@H]1C(=O)N(C)c2cnc(Nc3ccc(C(=O)N[C@H]4CC[C@H](N5CCN(CC6CC6)CC5)CC4)cc3OC)nc2N1C(C)C resistant

Give Phenotype (potency); test system HCT 116 vs HPT1, -2 and -4; compound N[C@@H](CSC(c1ccccc1)(c1ccccc1)c1ccccc1)C(=O)O resistant

Give Phenotype (potency); test system HCT 116 vs HPT1, -2 and -4; compound CCc1cccc(CC)c1NC(=O)c1ccn2c1CCc1cnc(Nc3ccc(N4CCN(C)CC4)cc3OC)nc1-2 sensitive

* * *

Test system: HCT 116 colon carcinoma cell line
Experimental details: Cell proliferation assay (ATPlite), HCT 116
Assay type: cell-based, human
Condition parameters: Homo sapiens, HCT-116, 120 h, 5 day proliferation assay, HCT 116 (Suppl. Table 1)
Method: Cell proliferation assays were carried out as described using ATPlite 1step™ (Perkin Elmer, Groningen, The Netherlands). Exposure time was 72 or 120 hours as indicated in the Legends to the Figures. Percentage growth was calculated, relative to the growth of unexposed cells, and relative IC50s were fitted using a four-parameter logistics curve (XLfit 5.3, IDBS). […] Caspase 3/7 activity of cancer cells was measured using Caspase-Glo 3/7 Assay kit (cat no. G8093, Promega, Madison USA). […]
Assay readout: pIC50
Please keep in mind that pIC50 is minus log10 of the molar concentration; only the number is needed.

Specify reported pIC50 for the compound shown: c1nc2nc(Nc3ccc(N4CCOCC4)cc3)nc(NC3CCCCC3)c2[nH]1 6.76
